# protocolDetails: total protein half-life in vivo (active degradation + dilution); higher = more stable protein
# experimentalParameters: E. coli NCM3722 delta-clpP delta-lon delta-hslV; growth: N-lim chemostat; doubling time 6 h
reportedProperty: total protein half-life in vivo

| biopolymerSequence | total protein half-life in vivo |
| --- | --- |
| MRLGTFHKKKRFYINKIKINFLSFLFRNKINNQITDPAQVKSCLIIHDNNKLGDLIVLSSIYRELYSKGVKITLLTNRKGGEFLSNNKNIFEFCIKESTGFLEMLTLCKHLRDLQFDIVLDPFETMPSFKHSLILSSLKDSYILGFDHWYKRYYSFYHPHDECLKEHMSTRAIEILKHIYGEGKFSTNYDLHLPVDVEDKIKEFIGDTRIVIINPLGAKKICRLTFEQIKVIYQEVKTHFENYRIIFTGLPQDLLTIPILEIETLPFDEFIYTVALTKYSDFVISVDTALVHIAAAYHKPTLAFYPNSRTPEYPSHLIWSPNHHKSIQIVSPTYTVKDIDTETLTNSVKRLSCIDKK | 5.5 h |

Fill in: total protein half-life in vivo of MSKRLPPLNALRVFDAAARHLSFTRAAEELFVTQAAVSHQIKSLEDFLGLKLFRRRNRSLLLTEEGQSYFLDIKEIFSQLTEATRKLQARSAKGALTVSLLPSFAIHWLVPRLSSFNSAYPGIDVRIQAVDRQEDKLADDVDVAIFYGRGNWPGLRVEKLYAEYLLPVCSPLLLTGEKPLKTPEDLAKHTLLHDASRRDWQTYTRQLGLNHINVQQGPIFSHSAMVLQAAIHGQGVALANNVMAQSEIEAGRLVCPFNDVLVSKNAFYLVCHDSQAELGKIAAFRQWILAKAAAEQEKFRFRYEQ [P0A9F6] is ___
5.93 h

* * *

# protocolDetails: total protein half-life in vivo (active degradation + dilution); higher = more stable protein
# experimentalParameters: E. coli NCM3722 delta-smpB; growth: N-lim chemostat; doubling time 6 h
Please respond with reported total protein half-life in vivo for every item in the list.
Numbers only, in h.

| biopolymerSequence | reportedProperty | readoutValue |
| --- | --- | --- |
| MKTMLAAYLPGNSTVDLREVAVPTPGINQVLIKMKSSGICGSDVHYIYHQHRATAAAPDKPLYQGFINGHEPCGQIVAMGQGCRHFKEGDRVLVYHISGCGFCPNCRRGFPISCTGEGKAAYGWQRDGGHAEYLLAEEKDLILLPDALSYEDGAFISCGVGTAYEGILRGEVSGSDNVLVVGLGPVGMMAMMLAKGRGAKRIIGVDMLPERLAMAKQLGVMDHGYLATTEGLPQIIAELTHGGADVALDCSGNAAGRLLALQSTADWGRVVYIGETGKVEFEVSADLMHHQRRIIGSWVTSLFHMEKCAHDLTDWKLWPRNAITHRFSLEQAGDAYALMASGKCGKVVINFPD | total protein half-life in vivo | 1.84 |
| MKAFNKLFSLVVASVLVFSLAGCGDKEESKKFSANLNGTEIAITYVYKGDKVLKQSSETKIQFASIGATTKEDAAKTLEPLSAKYKNIAGVEEKLTYTDTYAQENVTIDMEKVDFKALQGISGINVSAEDAKKGITMAQMELVMKAAGFKEVK | total protein half-life in vivo | 4.61 |

With those in mind, consider the next sequence.
Fill in: total protein half-life in vivo of MRLTSKGRYAVTAMLDVALNSEAGPVPLADISERQGISLSYLEQLFSRLRKNGLVSSVRGPGGGYLLGKDASSIAVGEVISAVDESVDATRCQGKGGCQGGDKCLTHALWRDLSDRLTGFLNNITLGELVNNQEVLDVSGRQHTHDAPRTRTQDAIDVKLRA [P0AGK8] is ___
1.04

* * *

Please respond with reported total protein half-life in vivo for every item in the list.
# protocolDetails: total protein half-life in vivo (active degradation + dilution); higher = more stable protein
# experimentalParameters: wild type E. coli NCM3722; growth: C-lim chemostat; doubling time 12 h
Numbers only, in h.

Can you give me total protein half-life in vivo for all of these, one by one?
1. MKPSSSNSRSKGHAKARRKTREELDQEARDRKRQKKRRGHAPGSRAAGGNTTSGSKGQNAPKDPRIGSKTPIPLGVTEKVTKQHKPKSEKPMLSPQAELELLETDERLDALLERLEAGETLSAEEQSWVDAKLDRIDELMQKLGLSYDDDEEEEEDEKQEDMMRLLRGN [P0A8H6]
2. MQTKKNEIWVGIFLLAALLAALFVCLKAANVTSIRTEPTYTLYATFDNIGGLKARSPVSIGGVVVGRVADITLDPKTYLPRVTLEIEQRYNHIPDTSSLSIRTSGLLGEQYLALNVGFEDPELGTAILKDGDTIQDTKSAMVLEDLIGQFLYGSKGDDNKNSGDAPAAAPGNNETTEPVGTTK

7.24
12.5

* * *

# protocolDetails: total protein half-life in vivo (active degradation + dilution); higher = more stable protein
# experimentalParameters: wild type E. coli NCM3722; growth: C-lim chemostat; doubling time 3 h
Please respond with reported total protein half-life in vivo for every item in the list.
Answer shape: numeric part, then the unit.

Known total protein half-life in vivo results, listed for orientation:
| biopolymerSequence | total protein half-life in vivo |
| --- | --- |
| MSEQLTDQVLVERVQKGDQKAFNLLVVRYQHKVASLVSRYVPSGDVPDVVQEAFIKAYRALDSFRGDSAFYTWLYRIAVNTAKNYLVAQGRRPPSSDVDAIEAENFESGGALKEISNPENLMLSEELRQIVFRTIESLPEDLRMAITLRELDGLSYEEIAAIMDCPVGTVRSRIFRAREAIDNKVQPLIRR [P0AGB6] | 3.49 h |
| MIDLRSDTVTRPSRAMLEAMMAAPVGDDVYGDDPTVNALQDYAAELSGKEAAIFLPTGTQANLVALLSHCERGEEYIVGQAAHNYLFEAGGAAVLGSIQPQPIDAAADGTLPLDKVAMKIKPDDIHFARTKLLSLENTHNGKVLPREYLKEAWEFTRERNLALHVDGARIFNAVVAYGCELKEITQYCDSFTICLSKGLGTPVGSLLVGNRDYIKRAIRWRKMTGGGMRQSGILAAAGIYALKNNVARLQEDHDNAAWMAEQLREAGADVMRQDTNMLFVRVGEENAAALGEYMKARNVLINASPIVRLVTHLDVSREQLAEVAAHWRAFLAR | 3.16 h |
| MQILADLLNTIPAIDSTAMSRAQRHIDGLLKPVGSLGKLEVLAIQLAGMPGLNGIPHVGKKAVLVMCADHGVWEEGVAISPKEVTAIQAENMTRGTTGVCVLAEQAGANVHVIDVGIDTAEPIPGLINMRVARGSGNIASAPAMSRRQAEKLLLDVICYTQELAKNGVTLFGVGELGMANTTPAAAIVSTITGRDPEEVVGIGANLPTDKLANKIDVVRRAITLNQPNPQDGVDVLAKVGGFDLVGIAGVMLGAASCGLPVLLDGFLSYAAALAACQMSPAIKPYLIPSHLSAEKGARIALSHLGLEPYLNMEMRLGEGSGAALAMPIIEAACAIYNNMGELAASNIVLPGNTTSDLNS | 3 h |

Can you give me total protein half-life in vivo for all of these, one by one?
1. MSKPIVMERGVKYRDADKMALIPVKNVATEREALLRKPEWMKIKLPADSTRIQGIKAAMRKNGLHSVCEEASCPNLAECFNHGTATFMILGAICTRRCPFCDVAHGRPVAPDANEPVKLAQTIADMALRYVVITSVDRDDLRDGGAQHFADCITAIREKSPQIKIETLVPDFRGRMDRALDILTATPPDVFNHNLENVPRIYRQVRPGADYNWSLKLLERFKEAHPEIPTKSGLMVGLGETNEEIIEVMRDLRRHGVTMLTLGQYLQPSRHHLPVQRYVSPDEFDEMKAEALAMGFTHAACGPFVRSSYHADLQAKGMEVK
2. MLAKRIIPCLDVRDGQVVKGVQFRNHEIIGDIVPLAKRYAEEGADELVFYDITASSDGRVVDKSWVSRVAEVIDIPFCVAGGIKSLEDAAKILSFGADKISINSPALADPTLITRLADRFGVQCIVVGIDTWYDAETGKYHVNQYTGDESRTRVTQWETLDWVQEVQKRGAGEIVLNMMNQDGVRNGYDLEQLKKVREVCHVPLIASGGAGTMEHFLEAFRDADVDGALAASVFHKQIINIGELKAYLATQGVEIRIC

["1.23 h", "2.97 h"]

* * *

# protocolDetails: total protein half-life in vivo (active degradation + dilution); higher = more stable protein
# experimentalParameters: wild type E. coli NCM3722; growth: C-lim chemostat; doubling time 6 h
reportedProperty: total protein half-life in vivo (h)
Numbers only, in h.

| biopolymerSequence | reportedProperty | units | readoutValue |
| --- | --- | --- | --- |
| MAYFLDFDERALKEWRKLGSTVREQLKKKLVEVLESPRIEANKLRGMPDCYKIKLRSSGYRLVYQVIDEKVVVFVISVGKRERSEVYSEAVKRIL [P0C077] | total protein half-life in vivo | h | 4.25 |

With those in mind, consider the next sequence.
Fill in: total protein half-life in vivo of `MTRLASRFGAANLIRRDRPLTREELFRVVPSVFSEDKHESRSERYTYIPTISLLDSLQREGFQPFFACQTRVRDPGRREHTKHMLRLRREGQITGKQVPEIILLNSHDGTSSYQMLPGLFRAVCQNGLVCGESFGEVRVPHKGDVVSQVIEGAYEVLGIFDRVEEKRDAMQSLLLPPPAQQALAKAALTYRFGEDHQPVTESQILSPRRWQDESNDLWTTYQRIQENLIKGGLSGRNAKGGRSHTRAVRGIDGDVKLNRALWVMAEALLTQLQ` is ___
3.1
